Tested on: T47D
Experiment: Antiproliferative activity against human T47D cells assessed as reduction in cell viability incubated for 24 hrs by sulforhodamine B assay
Assay type: functional, cell-based
# pIC50 listing for each entry below
pIC50 here: minus log base 10 of the concentration, concentration in moles per litre.

Query: Which pIC50 is listed for COc1ccc(C(=O)CSc2nc(Nc3ccc(S(N)(=O)=O)cc3)c(C#N)c(C(C)C)n2)cc1 ?
Result: 4.22

Query: Now the molecule O=c1[nH]cc(F)c(=O)[nH]1
Result: 5.17

Query: // same read-out, input: NS(=O)(=O)c1ccc(Nc2cc(-c3ccccc3)nc(SCC(=O)c3ccccc3)n2)cc1
Result: 4.35

Query: And then COc1ccc(C(=O)CSc2nc(Nc3cccc(S(N)(=O)=O)c3)cc(-c3ccccc3)n2)cc1 , what is it?
Result: 4.55

Each recorded value in this set is attributed to ChEMBL document CHEMBL5038625.
